Molecular target: HCV NS3/4A protease genotype 1b (Hepatitis C virus genotype 1b)
Assay: HCV NS3/4A protease time-resolved fluorescence (TRF) assay, Ki against genotype 1b
Type: biochemical
Conditions: IC50 [gt-1b] (nM), NS3/4A genotype 1b, enzyme 0.2 nM
Listed below: IC50 values for each entry.
Output spec: scalar in nM, unitless text.

A selection of reference data follows.
compound	measured-metric	recorded-number
COc1ccc2nc(C)c3c(c2c1)CC[C@]1(C[C@H]2C(=O)N[C@]4(C(=O)NS(=O)(=O)C5(C)CC5)C[C@H]4/C=C\CCCCC[C@H](NC(=O)OCC(C)C)C(=O)N2C1)O3	IC50	0.004
CC(C)(C)OC(=O)N[C@H]1CCCCC/C=C\[C@@H]2C[C@@]2(C(=O)NS(=O)(=O)C2(C)CC2)NC(=O)[C@@H]2C[C@]3(CCc4c(c(C(F)F)nc5ccccc45)O3)CN2C1=O	IC50	0.015
Cc1nc2ccccc2c2c1O[C@]1(CC2)C[C@H]2C(=O)N[C@]3(C(=O)NS(=O)(=O)C4(C)CC4)C[C@H]3/C=C\CCCCC[C@H](N(CCC(C)(C)C)CCC(C)(C)C)C(=O)N2C1	IC50	6.21

input: Please look up its IC50: CCc1ccc2nc(C)c3c(c2c1)C(F)C[C@]1(C[C@H]2C(=O)N[C@]4(C(=O)NS(=O)(=O)C5(C)CC5)C[C@H]4/C=C\CCCCC[C@H](NC(=O)OC(C)(C)C)C(=O)N2C1)O3 (single isomer, unassigned) [Example 316]
output: 0.008

input: IC50 for CC(C)OC(=O)N[C@H]1CCCCC/C=C\[C@@H]2C[C@@]2(C(=O)NS(=O)(=O)C2(C)CC2)NC(=O)[C@@H]2C[C@]3(CCc4c(c(C(F)F)nc5ccccc45)O3)CN2C1=O ?
output: 0.023

input: Fill in: IC50 of Cc1nc2ccccc2c2c1O[C@]1(CC2)C[C@H]2C(=O)N[C@]3(C(=O)NS(=O)(=O)C4(C)CC4)C[C@H]3/C=C\CCCCC[C@H](NC(=O)OC(C(F)(F)F)C(F)(F)F)C(=O)N2C1 is ___
output: 0.022

input: Which IC50 is listed for Cc1nc2ccc(OC(F)(F)F)cc2c2c1O[C@]1(CC2)C[C@H]2C(=O)N[C@]3(C(=O)NS(=O)(=O)C4(C)CC4)C[C@H]3/C=C\CCCCC[C@H](NC(=O)OC3CCC3)C(=O)N2C1 ?
output: 0.012

input: IC50 lookup needed for Cc1nc2ccccc2c2c1O[C@]1(CC2)C[C@H]2C(=O)N[C@]3(C(=O)NS(=O)(=O)C4(C)CC4)C[C@H]3/C=C\CCCCC[C@H](NC(=O)OC(CN(C)S(C)(=O)=O)C(C)(C)C)C(=O)N2C1 (single isomer, unassigned) [Example 259] , thanks.
output: 0.007

input: What value of measured IC50 is listed for Cc1nc2ccccc2c2c1O[C@]1(CC2)C[C@H]2C(=O)N[C@]3(C(=O)NS(=O)(=O)C4(C)CC4)C[C@H]3/C=C\CCCCC[C@H](NC(=O)OC3CCCC3)C(=O)N2C1 ?
output: 0.01

input: What does the data say about its IC50? Entry: CCc1nc2ccc(OC)cc2c2c1O[C@]1(C[C@H]2F)C[C@H]2C(=O)N[C@]3(C(=O)NS(=O)(=O)C4(C)CC4)C[C@H]3/C=C\CCCCC[C@H](NC(=O)OCC(C)(C)C)C(=O)N2C1
output: 0.009

input: # lookup: IC50 of Cc1nc2cc(Cl)ccc2c2c1O[C@]1(CC2)C[C@H]2C(=O)N[C@]3(C(=O)NS(=O)(=O)C4(C)CC4)C[C@H]3/C=C\CCCCC[C@H](NC(=O)OC3CCC3)C(=O)N2C1
output: 0.068
